Assay: qHTS assay for small molecules that induce genotoxicity in human embryonic kidney cells expressing luciferase-tagged ATAD5 - cell viability (AID 651634); further: nearly all actives have a fitted effect of over 25% in size
Details: HEK293T ATAD5-luc cells viability, CellTiter-Fluor, 15.5 h; series mostly up to 83.3 µM
Inconclusive results are not listed. Calls of active or inactive are those of the source. The call rests on the fitted dose curve.
Outcome codes: true (1) = active, false (0) = inactive

| MOLECULE | CLASS |
| --- | --- |
| CCCCCCCCCCO[C@@H]1O[C@H](CO)[C@@H](O)[C@H](O)[C@H]1O | false (0) |
| C#C[C@]1(O)CC[C@H]2[C@@H]3CCc4cc(OC5CCCC5)ccc4[C@H]3CC[C@@]21C | false (0) |
| Cc1cc(C(=O)O)ccc1[N+](=O)[O-] | false (0) |
| O=C1[C@H]2CCCC[C@H]2C(=O)N1CCCCN1CCN(c2nsc3ccccc23)CC1 | false (0) |
| CC/C=C\CCOC(=O)CC | false (0) |
| O=C1OC(CN2CCOCC2)CN1/N=C/c1ccc([N+](=O)[O-])o1 (stereo unspecified) | false (0) |
| CCCCCCCCCCCCN1CCCCCC1=O | true (1) |
| O=[N+]([O-])c1ccc(NCCO)c(OCCO)c1 | true (1) |
| Cc1[nH]c(C)c(Cl)c(=O)c1Cl | false (0) |
| Nc1cc(C(=O)O)c(O)c(S(=O)(=O)O)c1 | false (0) |
| COC(=O)c1ccc(I)cc1S(=O)(=O)NC(=O)Nc1nc(C)nc(OC)n1 | false (0) |
| CN(C)CCN(Cc1ccc(Cl)cc1)c1ccccn1 | false (0) |
| O=CC1CC=CCC1 (stereo unspecified) | false (0) |
| NCC(=O)O | false (0) |
| CCC(=O)O[C@]1(C(=O)CCl)[C@@H](C)C[C@H]2[C@@H]3CCC4=CC(=O)C=C[C@]4(C)[C@@]3(F)[C@@H](O)C[C@@]21C | false (0) |
| COc1cc(Cl)c(OC)cc1N | false (0) |
| CCC(C)c1cc(C(C)(C)C)c(O)c(C(C)(C)C)c1 (stereo unspecified) | false (0) |
| CCNc1cc(O)ccc1C | false (0) |
| CCC(C)O (stereo unspecified) | false (0) |
| CNCCCCOc1ccccc1Cc1ccccc1 | false (0) |
| Clc1ccc(Cn2c(CN3CCCC3)nc3ccccc32)cc1 | false (0) |
| CCCCCCCCCc1ccc(OCCOCCO)cc1 | true (1) |
| COc1ccc(C(=O)Nc2nc3ccccc3c(NCc3ccccc3)c2C#N)cc1 | false (0) |
| C=CCOc1ccccc1OCC(O)CNC(C)C (stereo unspecified) | false (0) |
| CCCCCCCCCCCCCCCCCCOS(=O)(=O)O | false (0) |
| CN(C)c1ccc(C(c2ccccc2)c2ccc(N(C)C)cc2)cc1 | false (0) |

###

Target: Nuclear receptor subfamily 1 group I member 3 (Homo sapiens) (UniProt Q14994)
Sequence (Q14994 whole entry, looked up): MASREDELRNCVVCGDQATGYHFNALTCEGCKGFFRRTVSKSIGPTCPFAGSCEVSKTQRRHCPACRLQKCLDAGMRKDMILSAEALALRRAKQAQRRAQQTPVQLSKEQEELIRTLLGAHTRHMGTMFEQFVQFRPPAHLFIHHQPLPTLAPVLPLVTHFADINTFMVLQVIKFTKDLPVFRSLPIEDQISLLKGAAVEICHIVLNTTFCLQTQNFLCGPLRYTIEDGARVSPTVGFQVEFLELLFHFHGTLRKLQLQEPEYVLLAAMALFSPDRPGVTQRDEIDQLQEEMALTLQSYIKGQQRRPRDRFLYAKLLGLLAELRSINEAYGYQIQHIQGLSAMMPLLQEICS
Assay: qHTS assay to identify small molecule antagonists of the constitutive androstane receptor (CAR) signaling pathway (AID 1224838);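 further: HepG2 cells stably expressing hCAR with CYP2B6 luciferase reporter stimulated by CITCO; on the % scale 0 is the no-effect control and ±100 the full control effect; nearly all actives have a fitted effect of over 40% in size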
Conditions: HepG2-CYP2B6-hCAR luciferase, CITCO-stimulated, 24 h; series mostly up to 92.4 µM
Inconclusive results are not listed. Calls of active or inactive are those of the source. Calls come from the whole dose curve; as a rule, active = well fitted inhibition curve with a large enough effect in the repeat runs; inconclusive = weak or mixed curves, or effect the other way; inactive = no such curve, though single readings can be large or run the other way.
activity, negative = inhibition listing for selected molecules.
EXPERIMENTAL READOUT: activity, negative = inhibition

| STRUCTURE STRING | EXPERIMENTAL READOUT | RESULT |
| --- | --- | --- |
| NCC(=O)O | activity, negative = inhibition | -5.57% [at 19 µM] (inactive) |
| Brc1c2ccccc2c(Br)c2ccccc12 | activity, negative = inhibition | 22.1% [at 8.39 µM] (inactive) |
| C/C=C/C(=O)CC | activity, negative = inhibition | -5.29% [at 19 µM] (inactive) |
| CN(C)c1ccc(/C=C/c2ccc([N+](=O)[O-])cc2)cc1 | activity, negative = inhibition | 47.3% [at 8.39 µM] (inactive) |

###

Assay: qHTS assay for identifying genotoxic compounds that show differential cytotoxicity against isogenic chicken DT40 cell lines with known DNA damage response pathways - wild type cell line (AID 743012); further: nearly all actives have a fitted effect of over 60% in size
Conditions: DT40 wild type chicken cells viability, CellTiter-Glo, 40 h; series mostly up to 68.4 µM
Records with an inconclusive call do not appear. Activity calls are given as the source filed them. The call rests on the fitted dose curve; in most records, active means well fitted cell-killing curve with a large enough effect in the repeat runs; inconclusive means weak or mixed curves, or effect the other way; inactive means no such curve, though single readings can be large or run the other way.
Possible outcomes: TRUE for active, FALSE for inactive

| MOLECULE | CLASS |
| --- | --- |
| CCO[C@H](Cc1ccc(OCCc2ccc(OS(C)(=O)=O)cc2)cc1)C(=O)O | FALSE |
| Cc1c(N)cccc1[N+](=O)[O-] | FALSE |
| c1ccc(C(O[C@H]2CCCN(CCc3ccc4c(c3)OCO4)C2)c2ccccc2)cc1 | TRUE |
| C=CC1CC2C=CC1C2 (stereo unspecified) | FALSE |
| CCOC(=O)COC(=O)c1cc(Oc2ccc(C(F)(F)F)cc2Cl)ccc1[N+](=O)[O-] | TRUE |
| CC[N+](C)(CC)CCOC(=O)C(O)(c1ccccc1)C1CCCCC1 (stereo unspecified) | FALSE |

###

Assay: qHTS assay to identify small molecule agonists of the NFkB signaling pathway - cell viability counter screen (AID 1159515); further: nearly all actives have a fitted effect of over 55% in size
Details: NFkB-bla ME-180 viability, CellTiter-Glo luminescence, 5 h; series mostly up to 61 µM
From the text: National Center for Advancing Translational Sciences [NCATS] NIH Chemical Genomics Center [NCGC] U.S. Environmental Protection Agency [EPA] National Institutes of Environmental Health Sciences [NIEHS] National Toxicology Program [NTP] U.S. Food and Drug Administration [FDA] Transcription factors and their stimulated target gene expression play pivotal roles across many cellular processes including responses to environmental stimuli. […]
Inconclusive results are not listed. The source made the active and inactive calls. The call rests on the fitted dose curve.
Possible outcomes: active, inactive

| COMPOUND | CLASS |
| --- | --- |
| CC(C)(C)Cl | inactive |
| CC(C)OC(=O)C(C)N(C(=O)c1ccccc1)c1ccc(F)c(Cl)c1 (stereo not given) | inactive |
| CCCCC(=O)OCC(=O)[C@H]1[C@H](C)C[C@H]2[C@@H]3C[C@H](F)C4=CC(=O)C=C[C@]4(C)[C@@]3(F)[C@@H](O)C[C@@]21C | inactive |
| O=C1C(O)=C(O)C(=O)C(O)=C1O | inactive |
| O=C1[C@H]2CCCC[C@H]2C(=O)N1CCCCN1CCN(c2nsc3ccccc23)CC1 | inactive |
| CCCCCC[C@@H](O)C/C=C\CCCCCCCC(=O)OC | inactive |
| Cc1[nH]c(C)c(Cl)c(=O)c1Cl | inactive |
| CC1=CC=C(C(C)C)CC1 | inactive |
| CCCCC/C=C\C/C=C\CCCCCCCC(=O)NC(C)c1ccccc1 (stereo not given) | inactive |
| NCC(=O)CCC(=O)O | inactive |
| CC(=O)NO | inactive |
| O=C(O)CC(=O)C(=O)O | inactive |
| CCN(CC)c1ccc(C(=C2C=CC(=[N+](CC)CC)C=C2)c2cc(S(=O)(=O)O)ccc2S(=O)(=O)[O-])cc1 | inactive |
| C/C=C/C=C/CO | inactive |
| CCCCCCCCCCO[C@@H]1O[C@H](CO)[C@@H](O)[C@H](O)[C@H]1O | inactive |
| CNCCCCOc1ccccc1Cc1ccccc1 | inactive |
| CCCCCCOC(=O)NC(=N)c1ccc(NCc2nc3cc(C(=O)N(CCC(=O)OCC)c4ccccn4)ccc3n2C)cc1 | active |
| O=C(Cl)c1cc(C(=O)Cl)cc(C(=O)Cl)c1 | inactive |
| CC(C)Cc1ccc(C(C)C(=O)OCc2ccccn2)cc1 (stereo not given) | inactive |
| CN(C)C(=O)NC1(c2ccccc2)CCN(CC[C@@]2(c3ccc(F)c(F)c3)CN(C(=O)c3ccccc3)CCO2)CC1 | inactive |
| NCC(=O)O | inactive |
| O=CC1CC=CCC1 (stereo not given) | inactive |
| O=P(O)(OCc1ccccc1)OCc1ccccc1 | inactive |
| CC(C)=CCC/C(C)=C/CC/C(C)=C/CO | inactive |
| COc1cccc(N(C)C(=S)Oc2ccc3c(c2)CCCC3)n1 | inactive |

###

Assay: qHTS assay for small molecule agonists of the antioxidant response element (ARE) signaling pathway (AID 743202); on activation: on the % scale 0 is the no-effect control and ±100 the full control effect
Settings: HepG2 ARE-bla reporter, beta-lactamase FRET, 16 h; series mostly up to 73.3 µM
Results filed as inconclusive are left out. The source made the active and inactive calls. Calls follow the shape of the dose curve; as a rule, active = well fitted activation curve with a large enough effect in the signal ratio in the repeat runs (not every such curve was filed as active); inconclusive = weak or mixed curves, or effect the other way; inactive = no such curve, though single readings can be large or run the other way; the % refers to the signal ratio.
Possible outcomes: class 1 for active, class 0 for inactive

| COMPOUND | CLASS |
| --- | --- |
| CCOc1ccc(O)cc1 | class 1 |
| CN(C)CCN(Cc1ccc(Cl)cc1)c1ccccn1 | class 0 |
| CCCCCCCC#N | class 0 |
| O=C1OC(CN2CCOCC2)CN1/N=C/c1ccc([N+](=O)[O-])o1 (stereo not given) | class 1 |
| CCCCCCCCCCCc1ccccc1 | class 0 |
| C=C1[C@H]2CC[C@@H]3[C@H]2C(C)(C)CCC[C@]13C | class 0 |
| CC1=CC=C(C(C)C)CC1 | class 0 |
| CCN(CC)CCNC(=O)c1cc(Br)c(N)cc1OC | class 0 |
| Nc1ccc([N+](=O)[O-])c(C(F)(F)F)c1 | class 0 |
| Cc1c(N)cccc1[N+](=O)[O-] | class 0 |
| CCCCCC[C@@H](O)C/C=C\CCCCCCCC(=O)OC | class 0 |
| CC(=O)[O][Al][O]C(C)=O | class 0 |
| CCCCCCCCCc1ccc(OCCOCCO)cc1 | class 1 |
| COc1ccc(-c2nc3ccc(C4=NNC(=O)CC4C)cc3[nH]2)cc1 (stereo not given) | class 0 |
| C#CCN(C)CCCOc1ccc(Cl)cc1Cl | class 1 |
| Cc1ccc(C(C)OC(=O)C2(C)CCC(C(=O)O)C2(C)C)cc1 (stereo not given) | class 0 |
| COc1cc2c(cc1OC)C(C(C(=O)N(CCc1ccc(OC)c(OC)c1OC)CCc1ccc(OC)c(OC)c1OC)c1ccccc1)=NCC2 (stereo not given) | class 0 |
| C[C@@H]1C[C@H]2[C@@H]3CCC4=CC(=O)C=C[C@]4(C)[C@@]3(F)[C@@H](O)C[C@]2(C)[C@@]1(O)C(=O)COC(=O)c1ccncc1 | class 0 |
| COc1cc(Cl)ccc1Oc1ccc(Cl)cc1Cl | class 0 |
| Nc1c(CC(=O)O)cccc1C(=O)c1ccc(Br)cc1 | class 0 |
| O=C1C(O)=C(O)C(=O)C(O)=C1O | class 0 |
| O=CC1CC=CCC1 (stereo not given) | class 0 |
| CN(C)C(=O)NC1(c2ccccc2)CCN(CC[C@@]2(c3ccc(F)c(F)c3)CN(C(=O)c3ccccc3)CCO2)CC1 | class 0 |
| OC(C#CCN1CCCC1)(c1ccccc1)c1ccccc1 | class 0 |
| C=C(C)C(=O)OCCOCC | class 0 |
